# Tested on: Leptosphaeria nodorum (LEPTNO)
# Test method notes: In vitro fungitoxicity of hydrazones with and without copper towards Leptosphaeria nodorum (Example 26)
# Format: cell-based
# Condition summary: Parastagonospora nodorum, 72 h, compound 0.05 μg/mL, copper-minus medium, 72 h at 25° C.; read-out: LEPTNO % Inhn. Minus Copper Observed
Please respond with reported inhibition of growth at 0.05 µg/mL for every item in the list.
Write the answer as a number in %, unit excluded.

IN: # lookup: inhibition of growth at 0.05 µg/mL of `C/C(=N\NC(=O)c1cccc(C)c1)c1cc(Br)ccc1O`
OUT: 0

IN: Again, but for `COc1cccc(C(=O)N/N=C/c2cc(Cl)cc(Br)c2O)c1C`
OUT: 9.1

IN: Again, but for `O=C(N/N=C/c1cc(Cl)cc(Br)c1O)c1ccccc1`
OUT: 11.8

IN: Again, but for `C/C(=N\NC(=O)c1cccc(Oc2ccccc2)c1)c1ccccc1O`
OUT: 0

IN: Again, but for `C/C(=N\NC(=O)CCc1ccccc1)c1ccccc1O`
OUT: 0

IN: Again, but for `O=C(N/N=C/c1cc(Cl)cc(Cl)c1O)c1ccccc1[N+](=O)[O-]`
OUT: 1.2

IN: Again, but for `O=C(N/N=C/c1cc(Br)ccc1O)c1cc(Cl)ccc1Cl`
OUT: 0

IN: Again, but for `C/C(=N\NC(=O)c1cccc(Cl)c1)c1ccc(Cl)cc1O`
OUT: 3

IN: Again, but for `O=C(N/N=C/c1c(Cl)ccc(Cl)c1O)c1ccccc1`
OUT: 10.1

IN: Again, but for `Nc1ccccc1C(=O)N/N=C/c1cc(Cl)cc(Cl)c1O`
OUT: 0

IN: Again, but for `O=C(CCc1cc(Br)c(O)c(Br)c1)N/N=C/c1cc(Cl)cc(Cl)c1O`
OUT: 4.8

IN: Again, but for `C/C(=N\NC(=O)c1ccccc1)c1ccccc1O`
OUT: 9

IN: Again, but for `O=C(N/N=C/c1ccccc1O)c1ccccc1O`
OUT: 0.7

IN: Again, but for `C/C(=N\NC(=O)c1ccccc1O)c1ccccc1O`
OUT: 3.7

IN: Again, but for `O=C(N/N=C/c1cc([N+](=O)[O-])cc(Br)c1O)c1cccc(Cl)c1`
OUT: 4

IN: Again, but for `O=C(N/N=C/c1cc(Cl)cc(Cl)c1O)c1ccccc1Cl`
OUT: 6

IN: Again, but for `C/C(=N\NC(=O)c1ccccc1Cl)c1cccc([N+](=O)[O-])c1O`
OUT: 2

IN: Again, but for `COc1ccc(/C(C)=N/NC(=O)c2ccc(C)cc2)c(O)c1`
OUT: 0

IN: Again, but for `O=C(N/N=C/c1cc(Cl)cc(Cl)c1O)c1ccc2c(c1)OCO2`
OUT: 3.9

IN: Again, but for `COc1cc(OC)cc(C(=O)N/N=C/c2cc(Cl)cc(Cl)c2O)c1`
OUT: 10.7

IN: Again, but for `O=C(N/N=C/c1c(O)ccc(Cl)c1Cl)c1ccccc1`
OUT: 0.5

IN: Again, but for `C/C(=N\NC(=O)c1cccc(C)c1)c1ccccc1O`
OUT: 2.4

IN: Again, but for `Cc1cccc(C(=O)N/N=C/c2ccccc2O)c1`
OUT: 0

IN: Again, but for `COc1ccc(O)c(/C(C)=N/NC(=O)c2cccc(Cl)c2)c1`
OUT: 4.5

IN: Again, but for `O=C(N/N=C/c1cc(Cl)cc(Cl)c1O)c1ccc(F)cc1`
OUT: 16

IN: Again, but for `O=C(N/N=C/c1ccccc1O)c1ccc(Br)cc1`
OUT: 8.3

IN: Again, but for `O=C(N/N=C/c1c(O)cc(C(F)(F)F)cc1C(F)(F)F)c1ccccc1`
OUT: 5.5

IN: Again, but for `C/C(=N\NC(=O)c1ccccc1C)c1ccccc1O`
OUT: 0.1
